- TESTED TARGET: renin (Homo sapiens)
- Construct: This test measures the formation of angiotensin I in human plasma
- Sequence (P00797 67-406): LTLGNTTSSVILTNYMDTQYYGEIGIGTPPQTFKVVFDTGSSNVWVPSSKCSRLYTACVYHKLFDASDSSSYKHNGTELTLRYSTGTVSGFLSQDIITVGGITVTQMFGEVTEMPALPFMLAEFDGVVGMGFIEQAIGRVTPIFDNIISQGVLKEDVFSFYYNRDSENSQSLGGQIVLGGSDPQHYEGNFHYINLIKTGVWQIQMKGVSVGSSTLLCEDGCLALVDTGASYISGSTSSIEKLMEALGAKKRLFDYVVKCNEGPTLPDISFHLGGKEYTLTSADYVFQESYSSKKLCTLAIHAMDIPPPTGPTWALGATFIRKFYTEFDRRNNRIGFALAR
- EXPERIMENTAL PROTOCOL: in vitro test of Nussberger et al.: formation of angiotensin I in human plasma, radioimmunoassay
- CONDITION NOTES: values given as 'in the range of about', read-out: IC50, inhibition of the formation of angiotensin I
// reported IC50 for each item listed
ENDPOINT NAME: IC50

[[record]]
compound = "CCO[C@H](C)COCc1ccc2c(c1)CCO[C@@]21CCNC[C@@H]1OCc1ccc2c(c1)N(CCCOC)CCO2"
measurement = "1 to 20 nM"

[[record]]
compound = "CCOC(C)COCc1ccc2c(c1)OCCOC21CCNCC1OCc1ccc2c(c1)N(CCCOC)CCO2 (stereo not drawn)"
measurement = "1 to 20 nM"

[[record]]
compound = "COCCCN1CCOc2ccc(CO[C@H]3CNCC[C@@]34OCc3cc(COC[C@@H](C)COC)ccc34)cc21"
measurement = "1 to 20 nM"

